# ASSAYED_TARGET: Polyunsaturated fatty acid 5-lipoxygenase (Rattus norvegicus, UniProt P12527)
# Sequence (P12527 whole entry): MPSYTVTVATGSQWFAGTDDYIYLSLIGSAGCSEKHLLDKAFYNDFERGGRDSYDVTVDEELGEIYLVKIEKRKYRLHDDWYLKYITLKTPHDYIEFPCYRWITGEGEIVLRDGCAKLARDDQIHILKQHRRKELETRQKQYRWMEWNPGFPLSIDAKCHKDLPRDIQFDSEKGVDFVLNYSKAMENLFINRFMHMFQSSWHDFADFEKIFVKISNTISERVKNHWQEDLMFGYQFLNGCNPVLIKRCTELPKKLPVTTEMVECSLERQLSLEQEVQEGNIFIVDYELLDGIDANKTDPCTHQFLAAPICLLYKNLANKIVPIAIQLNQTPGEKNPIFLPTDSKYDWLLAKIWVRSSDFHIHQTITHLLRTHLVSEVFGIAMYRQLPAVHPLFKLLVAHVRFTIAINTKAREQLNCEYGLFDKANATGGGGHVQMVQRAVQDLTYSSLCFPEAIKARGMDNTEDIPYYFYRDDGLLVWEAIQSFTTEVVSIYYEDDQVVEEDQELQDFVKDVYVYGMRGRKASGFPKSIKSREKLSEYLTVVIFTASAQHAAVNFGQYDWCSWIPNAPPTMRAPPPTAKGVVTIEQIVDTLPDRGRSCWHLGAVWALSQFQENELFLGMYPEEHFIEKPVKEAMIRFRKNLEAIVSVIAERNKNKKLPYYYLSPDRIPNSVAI
# TEST: Inhibition of 5-lipoxygenase by measuring 5-HETE levels in RBL-1 cell-free supernatant
pIC50: −log10 of the molar value.
If the reported pIC50 equals or exceeds 6, assign true (1). If not, assign false (0).

INPUT_SMILES | CLASS
O=C(Cc1ccc2c(c1)C(=O)c1ccccc1CO2)NO | false (0)
CCN(O)CCc1ccc2c(c1)C(=O)c1ccccc1CO2 | true (1)
CN(O)C(=O)CCc1ccc2c(c1)C(=O)c1ccccc1CO2 | true (1)
CCN(O)C(=O)CCc1ccc2c(c1)C(=O)c1ccccc1CO2 | true (1)
CON(C)C(=O)CCc1ccc2c(c1)C(=O)c1ccccc1CO2 | false (0)
CC(C)N(O)CCc1ccc2c(c1)C(=O)c1ccccc1CO2 | true (1)
CCN(O)C(=O)Cc1ccc2c(c1)C(=O)c1ccccc1CO2 | true (1)
CN(O)CCCc1ccc2c(c1)C(=O)c1ccccc1CO2 | true (1)
O=C1c2ccccc2COc2ccc(CCC(=O)N(O)C3CCCCC3)cc21 | false (0)
